Tested target: T1, Avi/His-HuIL18BPa (recombinant human IL-18BP isoform A with Avi and poly-His tags) (human, biotinylated with BirA on the Avi tag in some assays)
T1 construct: also called human IL-18BP-Avi-His
T1 chain: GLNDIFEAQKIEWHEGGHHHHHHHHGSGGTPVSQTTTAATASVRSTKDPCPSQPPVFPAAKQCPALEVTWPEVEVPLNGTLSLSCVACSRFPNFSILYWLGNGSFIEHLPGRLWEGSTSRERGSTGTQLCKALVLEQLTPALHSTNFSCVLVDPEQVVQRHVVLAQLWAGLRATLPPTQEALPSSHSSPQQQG
Experimental protocol: SPR Biacore T200, IgG captured on Protein A/G
# Kd values compiled below

Observe how each entry below is paired with its result.
Binder	Kd
anti-IL-18BP antibody variant BP-04.07 (antibody, V domains shown) VH: QVQLVQSGAEVKKPGASVKVSCKASGYTFTDYDMHWVRQAPGQGLEWMGIISTYYGVVSYAQKKQGRVTMTRDKSTSTVYMELSSLRSEDTAVYYCARSGTYNYGTRESHALDYWGQGTLVTVSS VL: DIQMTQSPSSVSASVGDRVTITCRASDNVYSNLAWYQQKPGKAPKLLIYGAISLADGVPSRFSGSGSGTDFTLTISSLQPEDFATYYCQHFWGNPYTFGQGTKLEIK	1.9 nM
anti-IL-18BP antibody variant BP-04.08 (antibody, V domains shown) VH: QVQLVQSGAEVKKPGASVKVSCKASGYTFTDYDMHWVRQAPGQGLEWMGIYSTYYGDVSYAQKKQGRVTMTRDKSTSTVYMELSSLRSEDTAVYYCARSGTYNYGTRESHALDYWGQGTLVTVSS VL: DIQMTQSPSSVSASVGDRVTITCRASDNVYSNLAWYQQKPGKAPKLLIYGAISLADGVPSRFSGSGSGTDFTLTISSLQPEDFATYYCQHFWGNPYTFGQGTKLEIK	16 nM
anti-IL-18BP antibody variant BP-04.09 (antibody, V domains shown) VH: QVQLVQSGAEVKKPGASVKVSCKASGYTFTDYDMHWVRQAPGQGLEWMGIYSTYYGVVSYAQKFQGRVTMTRDKSTSTVYMELSSLRSEDTAVYYCARSGTYYYGTRESHAFDYWGQGTLVTVSS VL: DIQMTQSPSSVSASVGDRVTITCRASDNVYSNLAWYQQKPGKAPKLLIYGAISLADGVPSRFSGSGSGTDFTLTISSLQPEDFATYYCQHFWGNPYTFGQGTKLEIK	0.52 nM
anti-IL-18BP antibody variant BP-04.05 (antibody, V domains shown) VH: QVQLVQSGAEVKKPGASVKVSCKASGYTFTDYDMHWVRQAPGQGLEWMGIISTYYGVVSYAQKKQGRVTMTRDKSTSTVYMELSSLRSEDTAVYYCARSGTYYYGTRESHAFDYWGQGTLVTVSS VL: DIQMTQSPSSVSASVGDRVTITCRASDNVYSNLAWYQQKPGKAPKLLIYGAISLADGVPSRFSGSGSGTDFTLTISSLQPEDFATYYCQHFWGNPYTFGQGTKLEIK	0.67 nM

Recorded result, anti-IL-18BP antibody variant BP-04.32 (antibody, V domains shown) VH: QVQLVQSGAEVKKPGASVKVSCKASGYTFTDYDMHWVRQAPGQGLEWMGIYSTYYGDVSYAQKFQGRVTMTRDKSTSTVYMELSSLRSEDTAVYYCARSGTYYYGTRESHALDYWGQGTLVTVSS VL: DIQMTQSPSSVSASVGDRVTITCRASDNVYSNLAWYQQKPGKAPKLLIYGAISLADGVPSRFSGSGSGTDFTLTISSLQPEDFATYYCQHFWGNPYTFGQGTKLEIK , Kd: 20 nM
